Assign melting point to each entry below.

Q) Value lookup for melting point; key = `CCc1c(Oc2cc(C)cc(C)c2)n(COCc2ccccc2)c(=O)[nH]c1=O`
A) 146 to 150 °C

Q) I am curious: what melting point value has been reported for `CC(C)(C)OC(=O)N1CCCN(c2ccc(N)cc2C#N)CC1` ?
A) 38 °C

Q) Fill blank: measured melting point of the compound CC#CC(C)(C)NC(=O)C(CC)Oc1ccc2ncc(Cl)cc2c1 (stereo not given) is ____.
A) 105 to 107 °C

Q) Value lookup for melting point; key = `CCNC(=O)c1cc(NC(=O)c2ccccc2)ccc1[Si](C)(C)C`
A) 185 to 187 °C

Q) Value lookup for melting point; key = `CCCC[C@H](NC(=O)CC[C@H](C)CNC(=O)COc1ccccc1)C(=O)CS(=O)(=O)Cc1ccco1`
A) 120 to 121 °C

Q) Need melting point of `CCOC(CNc1nncs1)OCC` , thanks.
A) 108 to 112 °C

Q) What value of melting point has been reported for the following compound? `CN1CCN(CC(=O)NN)CC1`
A) 87 to 89 °C

Q) Fill in: melting point of COc1ccc2nc(NC(=O)C(CC3CCCC3)c3ccc(S(=O)(=O)NCc4cccs4)cc3)sc2n1 (stereo not given) is ___
A) 263 to 268 °C

Q) I'd like to know its melting point. The compound in question is CC(C)(C)c1cc(C2NNC(=S)N2N)cc(C(C)(C)C)c1O (stereo not given)
A) 260 to 270 °C

Q) Consider the compound `CCN=C1SC(=CC(=O)O)C(=O)N1CC` and give its measured melting point.
A) 148 to 152 °C
